Where these numbers come from: patent US20190091332A1

As shown below, each of these binders has a reported IC50 value.
Biological target: T1, human LAG3-huFc (human, UniProt P18627 23-450, limits assumed)
T1 construct: also called human LAG3-Fc; huLAG3-huFc; not shown: human Fc (huFc)
T1 sequence: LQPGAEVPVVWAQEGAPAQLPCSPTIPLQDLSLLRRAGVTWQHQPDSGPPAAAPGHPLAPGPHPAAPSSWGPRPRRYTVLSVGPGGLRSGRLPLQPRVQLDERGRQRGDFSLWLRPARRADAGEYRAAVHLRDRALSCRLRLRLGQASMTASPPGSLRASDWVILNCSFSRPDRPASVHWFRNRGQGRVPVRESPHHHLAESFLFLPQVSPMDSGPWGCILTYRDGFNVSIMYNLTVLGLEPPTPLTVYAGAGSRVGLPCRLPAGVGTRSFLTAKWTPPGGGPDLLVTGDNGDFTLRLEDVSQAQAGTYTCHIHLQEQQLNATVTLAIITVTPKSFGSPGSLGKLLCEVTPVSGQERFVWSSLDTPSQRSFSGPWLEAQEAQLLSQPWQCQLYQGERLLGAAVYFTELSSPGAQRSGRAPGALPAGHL
Assay: flow cytometry competition: antibody pre-incubated with human LAG3-huFc, its binding to Daudi cells (MHC class II) read
value-kind: IC50

- LB148.4A10.1H1 (antibody, V domains shown, also called Lag3 clone 4A10; mouse x [LAG3_H] mAb (LB148.4A10.1H1) IgG2a/kappa (HY)) VH: EVQLLQSGAELVRSGASVKLSCTASGFNIEDYYMHWMKQRPEQGLEWIGWIDPVNGDTEYAPKFQGKATMTADTSSNTAYLHLNSLTSEDTAVYYCNFYDGYLFAFWGQGTLVTVSA VL: DIVLTQAAPSVPVTPGESVSISCRSSKSLLHSDGNTYLYWLLQRPGQSPQLLIYRMSNLASGVPDRFSGSGSGTVFTLRISRLEAEDVGIYYCMQHLEYPFTFGGGTKLEIK: 1.9 nM
- LB145.22D2.E1.1D1 (antibody, V domains shown, also called mouse anti-human LAG3 clone 22D2; Lag3 clone 22D2) VH: EVLLLQSGPELVKPGTSVKIPCKASGYTFTDYNVDWVKQRHGKGLEWIGDINPNNGGTIYSQKFKGKATLTVDKSSSTAFMELRSLTSEDTAVYFCARNYRWFGAMDHWGQGTSVTVSS VL: DIVLTQSPASLAVSPGQRATISCKASQSLDYEGDSDMNWYQQKPGQPPRLLISGASNLESGIPARFSGSGSGTDFTVNIHPVEEEDAATYYCQQSTEDPRTFGGGTKLEIK: 2.1 nM
- LB148.19E8.G1.1A1 (antibody, V domains shown, also called Lag3 clone 19E8) VH: QIRLQQSGPELVKPGASVKISCKASGSSFTDYYINWVKQKPGQGLEWIGWIYPGSGNSIYNENFKAKATLTVDTSSSTAYMHLSSLTSEDTAVYFCAREADYDDALDYWGQGTSVTVSS VL: HILLTQSPAILSVSPGERVSFSCRASQSIGTSIHWYQQRTNGSPRLLIKYASESISGIPSRFSGSGSGTDFTLSINSVESEDIADYYCQQSNSWPTYTFGGGTKLEIK: 2.8 nM
- LB148.11C9.1C1 (antibody, V domains shown, also called Lag3 clone 11C9; mouse x [LAG3_H] mAb (LB148.11C9.1C1) IgG1/kappa (HY)) VH: QVQLQQPGAELVMPGASAKMSCKASGYTLTDYWMHWVKQRPGQGLEWIGAIDISDSYSSYNQKFKGKATLTVDESSSTAYMQLTSLTSEDSAVYYCARSPFYNSRGGNYFDYWGQGTTLTVSS VL: DIQMTQTTSSLSASLGDRVTISCRASQDISNYLNWYQQKPDGTVKLLIYYTSRLHSGVPSRFSGSGSGTDYSLTISNLEQEDIATYFCQQGDTLPPWTFGGGTKLEIK: 2 nM
